- Experimental system: Cell division control protein 42 homolog (Homo sapiens) (UniProt P60953)
- Sequence (P60953 whole entry, looked up): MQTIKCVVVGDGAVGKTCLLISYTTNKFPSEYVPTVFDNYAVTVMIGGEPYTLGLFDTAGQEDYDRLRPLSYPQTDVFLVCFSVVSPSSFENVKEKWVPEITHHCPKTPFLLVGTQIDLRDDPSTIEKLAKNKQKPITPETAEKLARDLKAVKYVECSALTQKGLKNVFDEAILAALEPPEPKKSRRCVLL
- Assay notes: inhibition of fluorescent GTP binding to Cdc42 – biochemical, multiplex bead flow cytometry, round 1, SAR follow-up (AID 588377)
- Setup conditions: GST-Cdc42 wt beads
Assay readout: EC50

Use these answered entries as a reference point.
NS(=O)(=O)c1ccc(N2N=C(c3ccccc3)CC2c2ccccc2)cc1 (stereo not drawn) | 4.13 µM
O=C(C#Cc1ccccc1)c1cccc([N+](=O)[O-])c1 | 3.94 µM

Now look at this one.
Req: Record COc1ccc(C2CC(c3ccccc3)=NN2c2ccc(S(N)(=O)=O)cc2)cc1 (stereo not drawn) : what is its EC50 with Cell division control protein 42 homolog (Homo sapiens) (UniProt P60953)?
Resp: 0.823 µM

These data points were gathered from PubChem BioAssay AID588377.
